experimental_target: HIV-1 reverse transcriptase (Human immunodeficiency virus 1, UniProt P03366;P03366 P03366:600-1159,P03366:600-1039)
experiment_description: inhibition
measurement_kind: Ki (nM)

> print(dat)
                                     binder  measurement.kind  recorded.number
1  GTGGTGGGTGGGTGGGTGGTGGGTGGTGGTTGTGGGTGGGTGGTG (ssDNA, PS all linkages, 3'-amine) [I100-21]                Ki                1
2  GTTGGGGGTTGTTGGTGGGGTGGTGG (ssDNA, phosphodiester, 3'-propanolamine) [I100-00]                Ki              370
3  GATCCATGTCAGTGACAC (ssDNA, PS all linkages, 3'-amine) [1232 random GATC]                Ki              560
4  GGGTGGGTGGGTGGGTGG (ssDNA, PS all linkages, 3'-amine) [1174]                Ki               15
5  GTGGTGGGTGGGTGGGTGGTGGGTGGTGGTTGTGGGTGGGTGGTG (ssDNA, phosphodiester, 3'-amine) [I100-07]                Ki              137
6  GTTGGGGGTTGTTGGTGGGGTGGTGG (ssDNA, PS all linkages, 3'-amine) [I100-12]                Ki                5
